test system: T.b. brucei, T.b. gambiense and T.b. rhodesiense; assay: Isolated bloodstream trypomastigote (TRY) in-vitro screen; format: cell-based
recorded_metric: activity, isolated bloodstream TRY

OC[C@H]1O[C@@H](n2cnc3c(NCc4ccco4)ncnc32)[C@H](O)[C@@H]1O: + +
CC(C)=CCNc1ncnc2c1ncn2[C@@H]1O[C@H](CO)[C@@H](O)[C@H]1O: +
Cc1ccc(C(=O)Nc2ccc(S(=O)(=O)O)c3cc(S(=O)(=O)O)cc(S(=O)(=O)O)c23)cc1NC(=O)c1cccc(NC(=O)Nc2cccc(C(=O)Nc3cc(C(=O)Nc4ccc(S(=O)(=O)O)c5cc(S(=O)(=O)O)cc(S(=O)(=O)O)c45)ccc3C)c2)c1 [Suramin, suramin, reference compound]: -,+
CC(C)=CCNc1ncnc2c1ncn2[C@@H]1O[C@H](COP(=O)(O)O)[C@@H](O)[C@H]1O [N6-Isopentenyl Adenosine-5'monophosphate]: +
Nc1nc(N)nc(Nc2ccc([As]3SCC(CO)S3)cc2)n1 (stereo not drawn) [Melarsoprol, melarsoprol, reference compound]: + +

Proceeding to the next compound to report its activity, isolated bloodstream TRY.
Incoming: For N=C(N)c1ccc(OCCCCCOc2ccc(C(=N)N)cc2)cc1 [Pentamidine, pentamidine, reference compound] , what is its reported activity, isolated bloodstream TRY?
Outgoing: + +

----------
tested on: HIV-1; assay: Experiment la(b): H9 cells, HIV-1, antibody assay; assay type: cell-based; details: Human immunodeficiency virus 1; H9; HIV-1; as read from Figure 15; read-out: IC50
recorded_metric: pIC50
Answers are plain numbers, as −log10 of the molar value.

Incoming: For CC(C)=CCNc1ncnc2c1ncn2[C@@H]1O[C@H](CO)[C@@H](O)[C@H]1O , what is its reported pIC50?
Outgoing: 5.70

# credit: patent EP0462621A2
